Hey, just so you know, these numbers are from PubChem BioAssay (NCI).

- System: ACHN renal
- METHOD: NCI tumour cell line growth inhibition, 48 h
MEASURED ENDPOINT: TGI (µM)

- MOLECULE: "NS(=O)(=O)c1ccc(N=Nc2c(O)c(C(=O)O)cc3ccccc23)cc1"
  ASSAYED TARGET: "ACHN renal"
  READOUT QUALIFIER: ">"
  ENDPOINT RESULT: 100
- MOLECULE: "Cc1nnc(Nc2ccc(NC(=O)Nc3ccc(Cl)cc3)cc2)c2ccccc12"
  ASSAYED TARGET: "ACHN renal"
  READOUT QUALIFIER: "="
  ENDPOINT RESULT: 3.69
- MOLECULE: "COC(=O)[C@]12CC[C@@H](C)[C@H](C)[C@@H]1C1=CC[C@@H]3[C@@]4(C)C[C@@H](O)[C@H](O)[C@@](C)(CO)C4=CC[C@@]3(C)[C@]1(C)CC2"
  ASSAYED TARGET: "ACHN renal"
  READOUT QUALIFIER: "="
  ENDPOINT RESULT: 33.8
- MOLECULE: "CN1CCN(c2ccc(Nc3cc(-c4cccc(-n5ccc6cc(C7CC7)cc(F)c6c5=O)c4CO)cn(C)c3=O)nc2)CC1"
  ASSAYED TARGET: "ACHN renal"
  READOUT QUALIFIER: "="
  ENDPOINT RESULT: 3.76
- MOLECULE: "COc1cc(N=Nc2ccc(O)c3ncccc23)c2ncccc2c1"
  ASSAYED TARGET: "ACHN renal"
  READOUT QUALIFIER: "="
  ENDPOINT RESULT: 14.2
- MOLECULE: "CCCNc1ncnc2c1ncn2C"
  ASSAYED TARGET: "ACHN renal"
  READOUT QUALIFIER: ">"
  ENDPOINT RESULT: 100
- MOLECULE: "Nc1ncn([C@@H]2O[C@H](CO)[C@@H](O)[C@H]2O)c(=O)n1"
  ASSAYED TARGET: "ACHN renal"
  READOUT QUALIFIER: "="
  ENDPOINT RESULT: 16.7
- MOLECULE: "CN1C(=O)c2ccccc2NC(=O)C12O[C@@H]2c1ccccc1 (some centres undefined)"
  ASSAYED TARGET: "ACHN renal"
  READOUT QUALIFIER: ">"
  ENDPOINT RESULT: 100
- MOLECULE: "COc1ccc(-c2nc(SCC(=O)NNC(=S)Nc3ccccc3)[nH]c2-c2ccc(OC)cc2)cc1"
  ASSAYED TARGET: "ACHN renal"
  READOUT QUALIFIER: "="
  ENDPOINT RESULT: 64.2
